These data points were gathered from the supplement of paper PMC11551840.

# Tested on: SAS
# testProtocol: IC50 (cell viability, 72 h) (ln(µM))
assayEndpoint: IC50 (ln)
When you answer, write just the number.

Past entries and their recorded results:
compound	targetOrSystem	val
CC[C@]1(O)C[C@@H]2CN(CCc3c([nH]c4ccccc34)[C@@](C(=O)OC)(c3cc4c(cc3OC)N(C)[C@H]3[C@@](O)(C(=O)OC)[C@H](OC(C)=O)[C@]5(CC)C=CCN6CC[C@]43[C@@H]65)C2)C1	SAS	-2.06
COc1ncc(-c2ccc3nccc(-c4ccnnc4)c3c2)cc1NS(=O)(=O)c1ccc(F)cc1F	SAS	-1.24
CC[C@@]1(O)C(=O)OCc2c1cc1n(c2=O)Cc2cc3ccccc3nc2-1	SAS	-4.38
C/C=C1\NC(=O)[C@H]2CSSCC/C=C/[C@H](CC(=O)N[C@H](C(C)C)C(=O)N2)OC(=O)[C@H](C(C)C)NC1=O	SAS	-4.87
CCNC(=O)c1noc(-c2cc(C(C)C)c(O)cc2O)c1-c1ccc(CN2CCOCC2)cc1	SAS	-3.87

Prompt: Note IC50 (ln) for the compound shown: CC[C@@]1(O)C(=O)OCc2c1cc1n(c2=O)Cc2cc3c(CN(C)C)c(O)ccc3nc2-1
Completion: -2.78

Prompt: Quote IC50 (ln) reported for CCC1=C[C@@H]2CN(C1)Cc1c([nH]c3ccccc13)[C@@](C(=O)OC)(c1cc3c(cc1OC)N(C)[C@H]1[C@@](O)(C(=O)OC)[C@H](OC(C)=O)[C@]4(CC)C=CCN5CC[C@]31[C@@H]54)C2 please.
Completion: -1.52

Prompt: Kindly indicate its recorded IC50 (ln). Item: Cc1c2oc3c(C)ccc(C(=O)N[C@@H]4C(=O)N[C@H](C(C)C)C(=O)N5CCC[C@H]5C(=O)N(C)CC(=O)N(C)[C@@H](C(C)C)C(=O)O[C@@H]4C)c3nc-2c(C(=O)N[C@@H]2C(=O)N[C@H](C(C)C)C(=O)N3CCC[C@H]3C(=O)N(C)CC(=O)N(C)[C@@H](C(C)C)C(=O)O[C@@H]2C)c(N)c1=O
Completion: -4.65

Prompt: Note down IC50 (ln) recorded for COCC[n+]1c2c(n(Cc3cnccn3)c1C)C(=O)c1ccccc1C2=O [Sepantronium bromide]
Completion: -6.78

Prompt: Input CC(=O)O[C@@]12CO[C@@H]1C[C@H](O)[C@@]1(C)C(=O)[C@H](O)C3=C(C)[C@@H](OC(=O)[C@H](O)[C@@H](NC(=O)OC(C)(C)C)c4ccccc4)C[C@@](O)([C@@H](OC(=O)c4ccccc4)[C@H]21)C3(C)C , output reported IC50 (ln).
Completion: -3.91

Prompt: Tell me measured IC50 (ln) for CN[C@@H]1C[C@H]2O[C@@](C)([C@@H]1OC)n1c3ccccc3c3c4c(c5c6ccccc6n2c5c31)C(=O)NC4 please.
Completion: -1.77

Prompt: Return reported IC50 (ln). Input compound: CC[C@@H]1C(=O)N(C)c2cnc(Nc3ccc(C(=O)N[C@H]4CC[C@H](N5CCN(CC6CC6)CC5)CC4)cc3OC)nc2N1C(C)C
Completion: -0.561
